test system: c-raf mRNA; test: Northern blot analysis of inhibition of c-raf mRNA expression in T24 cells; assay type: cell-based, human
d = 2'-deoxy (DNA); m = 2'-O-methyl
QUANTITY_KIND: inhibition of c-raf mRNA expression

Reference set, count: 2
* TTCTCCTCCTCCCCTGGCAG (sugars from the 5' end m12 d8, all phosphorothioate, T or U not given here) [ISIS 7854, chimeric 2′-O-methyl P═S c-raf oligonucleotide, 3′UTR] | > 70%
* CTCGCCCGCTCCTCCTCCCC (all phosphorothioate, sugars by position and methylation of C not given here; further chemistry not fully specified) [ISIS 7849, chimeric 2′-O-methyl P═S c-raf oligonucleotide, 5′UTR] | > 70%

Continue with the sequence presented below.
Exam item: Give the reported inhibition of c-raf mRNA expression for this sequence. TTCTCGCCCGCTCCTCCTCC (all phosphorothioate, sugars by position and methylation of C not given here; further chemistry not fully specified) [ISIS 7856, chimeric 2′-O-methyl P═S c-raf oligonucleotide, 5′UTR]
Marked response: > 70%

* * *

Tested on: PKC-α mRNA
Test: Northern blot analysis of PKC-α mRNA levels
Assay type: cell-based, human
Conditions: result in words
Experimental: Oligonucleotides having SEQ ID NO:4 were synthesized as uniformly phosphorothioate chimeric oligonucleotides having a centered deoxy gap of varying lengths flanked by 2′-O-methylated regions. These oligonucleotides (500 nM concentration) were tested for effects on PKC-A mRNA levels by Northern blot analysis. Additional phosphorothioate oligonucleotides targeted to the human PKC-α 3′ untranslated region were designed and synthesized.
QUANTITY_KIND: effect on PKC-α mRNA levels

* AsAsAsAsCsGsTsCsAsGsCsCsAsTsGsGsTsCsCsC (AAAACGTCAGCCATGGTCCC; all phosphorothioate, sugars by position and methylation of C not given here; further chemistry not fully specified) [Oligonucleotide 5352] | most active
* TsTsCs TsCsGs CsTsGs GsTsGs AsGsTs TsTsC (TTCTCGCTGGTGAGTTTC; all phosphorothioate, sugars by position and methylation of C not given here; further chemistry not fully specified) [Oligonucleotide 6632] | most active
